# TEST SYSTEM: T1, human CD27 (human, UniProt P26842 21-260)
# T1 construct: also called hCD27; HsCD27
# PROTOCOL DESCRIPTION: cell ELISA on human CD27 CHOK1 cells, hIgG4
For each entry below, report its EC50 value.
Numbers only, in nM.

# per-item lookup of EC50; items listed below
1. hCD27.131A VH8VL6 huIgG4 (antibody, V domains shown) VH: EIQLVQSGAEVKKPGASVKVSCKASGYTFTNYGMNWVKQAPGQGLKWMGWINTNTGEPTYAEEFKGRFTFTLDTSISTAYMELSSLRNEDTAVYYCAREGDAMDYWGQGTTVTVSS VL: EIVLTQSPATLSLSPGERATLSCSASSSVSYMHWYQQKPGQAPKRWIYDTSKLASGVPARFSGSGSGTDYSLTISSLEPEDFAVYYCQQWNSYPFTFGQGTKLEIK
2. hCD27.131A VH8VL8 huIgG4 (antibody, V domains shown) VH: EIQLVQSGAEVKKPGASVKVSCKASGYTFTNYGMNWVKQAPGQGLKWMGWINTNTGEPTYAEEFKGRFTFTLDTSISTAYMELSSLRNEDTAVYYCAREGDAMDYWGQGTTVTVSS VL: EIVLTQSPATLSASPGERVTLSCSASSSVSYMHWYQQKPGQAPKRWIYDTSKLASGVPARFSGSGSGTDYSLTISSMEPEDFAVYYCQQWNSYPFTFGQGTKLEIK

1. 0.097
2. 0.129

# per-item lookup of EC50; items listed below
1. hCD27.131A VH7VL7 huIgG4 (antibody, V domains shown) VH: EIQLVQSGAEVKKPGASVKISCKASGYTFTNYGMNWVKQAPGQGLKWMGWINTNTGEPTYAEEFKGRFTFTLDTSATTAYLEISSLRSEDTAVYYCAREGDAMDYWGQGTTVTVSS VL: EIVLTQSPATLSLSPGERATLSCSASSSVSYMHWYQQKPGQAPKRWIYDTSKLASGVPARFSGSGSGTSYSLTISSLEPEDFATYYCQQWNSYPFTFGQGTKLEIK
2. hCD27.131A VH6VL8 huIgG4 (antibody, V domains shown) VH: EIQLVQSGAEVKKPGASVKVSCKASGYTFTNYGMNWVKQAPGQGLKWMGWINTNTGEPTYAEEFKGRFTFTLDTSISTAYMELSSLRSEDTAVYYCAREGDAMDYWGQGTTVTVSS VL: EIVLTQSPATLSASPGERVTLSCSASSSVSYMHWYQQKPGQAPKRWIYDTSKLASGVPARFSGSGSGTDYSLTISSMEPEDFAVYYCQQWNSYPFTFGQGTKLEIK
3. hCD27.131A VH7VL8 huIgG4 (antibody, V domains shown) VH: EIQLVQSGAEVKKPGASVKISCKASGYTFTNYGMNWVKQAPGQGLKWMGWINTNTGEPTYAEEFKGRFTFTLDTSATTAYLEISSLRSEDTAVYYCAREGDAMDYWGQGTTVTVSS VL: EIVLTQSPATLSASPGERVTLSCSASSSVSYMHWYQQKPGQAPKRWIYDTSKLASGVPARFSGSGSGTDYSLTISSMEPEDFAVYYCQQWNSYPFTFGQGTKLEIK

[0.084, 0.103, 0.086]
